Test system: PDC KRAS tumor spheroids with HUVEC/MSC, viability;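 further: spheroids exposed to compounds for seven days before readout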
Assay: Anticancer human tumor 349418-098-R-PDC patient-derived lung adenocarcinoma cell line growth inhibition [KRAS2]
Conditions: second compound 0.316 µM; first compound 1 µM; hits give low values
hey, just use label 1 if measured viability, T/C is less than 20%, otherwise label 0

Check out these entries, answers already filled in.
>>> class_name("O=C(c1cc(Cc2n[nH]c(=O)c3ccccc23)ccc1F)N1CCN(C(=O)C2CC2)CC1 + CNCc1ccccc1-c1csc(C(C)Nc2nc(C)nc3cc(OC)c(OC)cc23)c1")
"label 0"
>>> class_name("CCNC(=O)CC1N=C(c2ccc(Cl)cc2)c2cc(OC)ccc2-n2c(C)nnc21 (stereo not given) + C=CC(=O)N1CCN(c2nc(OCC3CCCN3C)nc3c2CCN(c2cccc4cccc(C)c24)C3)CC1CC#N")
"label 1"
>>> class_name("CC1(C)CCC(CN2CCN(c3ccc(C(=O)NS(=O)(=O)c4ccc(NCC5CCOCC5)c([N+](=O)[O-])c4)c(Oc4cnc5[nH]ccc5c4)c3)CC2)=C(c2ccc(Cl)cc2)C1 + CC1OCC2(CCN(c3cnc(Sc4ccnc(N)c4Cl)c(N)n3)CC2)C1N")
"label 0"
>>> class_name("CC1OCC2(CCN(c3cnc(Sc4ccnc(N)c4Cl)c(N)n3)CC2)C1N (stereo not given) + C=CC(=O)N1CCN(c2nc(=O)n(-c3c(C)ccnc3C(C)C)c3nc(-c4c(O)cccc4F)c(F)cc23)C(C)C1")
"label 0"

Next item in the queue.
Is viability, T/C of CC(=O)OC12COC1CC(O)C1(C)C(=O)C(O)C3=C(C)C(OC(=O)C(O)C(NC(=O)OC(C)(C)C)c4ccccc4)CC(O)(C(OC(=O)c4ccccc4)C21)C3(C)C (stereo not given) + C=CC(=O)N1CCN(c2nc(OCC3CCCN3C)nc3c2CCN(c2cccc4cccc(C)c24)C3)CC1CC#N strictly below 20%?
label 1
